Measured values drawn from PubChem BioAssay AID2060895 for this set.

- Test system: PDC 899932-113-R3-J6 complex spheroid viability
- experiment: Anticancer human tumor 899932-113-R3-J6-PDC patient-derived melanoma cell line growth inhibition [RAS]
- conditions: second compound 0.0949 µM; first compound 0.1 µM; stronger effect = lower value
Below, each of the compounds is paired with its reported viability, T/C value.

| compound | viability, T/C [%] |
| --- | --- |
| CC(C)NCC(C(=O)N1CCN(c2ncnc3c2C(C)CC3O)CC1)c1ccc(Cl)cc1 (configuration not stated) + CCn1c(-c2cc(N3CCN(C)CC3)cnc2C(C)OC)c2c3cc(ccc31)-c1csc(n1)CC(NC(=O)C1CC1C)C(=O)N1CCCC(N1)C(=O)OCC(C)(C)C2 | 2.19 |
| CC(=O)OC12COC1CC(O)C1(C)C(=O)C(O)C3=C(C)C(OC(=O)C(O)C(NC(=O)OC(C)(C)C)c4ccccc4)CC(O)(C(OC(=O)c4ccccc4)C21)C3(C)C (configuration not stated) + CCn1c(-c2cccnc2C(C)OC)c2c3cc(ccc31)N1CCOC(CC(NC(=O)C(C(C)C)N(C)C(=O)C3(F)CCN(C(=O)C#CC(C)(C)N(C)C)CC3)C(=O)N3CCCC(N3)C(=O)OCC(C)(C)C2)C1 | 38.4 |
| CC(C)NCC(C(=O)N1CCN(c2ncnc3c2C(C)CC3O)CC1)c1ccc(Cl)cc1 (configuration not stated) + CCn1c(-c2cccnc2C(C)OC)c2c3cc(ccc31)N1CCOC(CC(NC(=O)C(C(C)C)N(C)C(=O)C3(F)CCN(C(=O)C#CC(C)(C)N(C)C)CC3)C(=O)N3CCCC(N3)C(=O)OCC(C)(C)C2)C1 | 97.8 |
| O=C(c1ccc(F)c(F)c1Nc1ccc(I)cc1F)N1CC(O)([C@@H]2CCCCN2)C1 + CCn1c(-c2cc(N3CCN(C)CC3)cnc2C(C)OC)c2c3cc(ccc31)-c1csc(n1)CC(NC(=O)C1CC1C)C(=O)N1CCCC(N1)C(=O)OCC(C)(C)C2 | 0.07 |
| O=C(c1ccc(F)c(F)c1Nc1ccc(I)cc1F)N1CC(O)([C@@H]2CCCCN2)C1 + CCn1c(-c2cccnc2C(C)OC)c2c3cc(ccc31)N1CCOC(CC(NC(=O)C(C(C)C)N(C)C(=O)C3(F)CCN(C(=O)C#CC(C)(C)N(C)C)CC3)C(=O)N3CCCC(N3)C(=O)OCC(C)(C)C2)C1 | 2.54 |
| C=CC(=O)N1CCN(c2nc(OCC3CCCN3C)nc3c(F)c(-c4nc(N)cc(C)c4C(F)(F)F)c(Cl)cc23)C(C)C1 (configuration not stated) + CCn1c(-c2cccnc2C(C)OC)c2c3cc(ccc31)N1CCOC(CC(NC(=O)C(C(C)C)N(C)C(=O)C3(F)CCN(C(=O)C#CC(C)(C)N(C)C)CC3)C(=O)N3CCCC(N3)C(=O)OCC(C)(C)C2)C1 | 101 |
| CC(C)n1nc(-c2ccc3oc(N)nc3c2)c2c(N)ncnc21 + CCn1c(-c2cc(N3CCN(C)CC3)cnc2C(C)OC)c2c3cc(ccc31)-c1csc(n1)CC(NC(=O)C1CC1C)C(=O)N1CCCC(N1)C(=O)OCC(C)(C)C2 | 0.65 |

###

Below, each of the compounds is paired with its reported viability, T/C value.
- Tested on: PDC 899932-113-R3-J6 complex spheroid viability
- experiment: Anticancer human tumor 899932-113-R3-J6-PDC cell line growth inhibition [RAS];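 as to viability, T/C: spheroids exposed to agents for seven days before readout; 100% = DMSO vehicle control wells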
- conditions: second compound 0.01 µM; first compound 0.1 µM; stronger effect = lower value

| compound | display unit | viability, T/C |
| --- | --- | --- |
| NC1c2ccccc2OC12CCN(c1cnc3c(N4CCCc5ncccc54)n[nH]c3n1)CC2 (stereo not given) + C=CC(=O)N1CCN(c2nc(OCC3CCCN3C)nc3c(F)c(-c4nc(N)cc(C)c4C(F)(F)F)c(Cl)cc23)C(C)C1 | % | 104 |
| CC(=O)OC12COC1CC(O)C1(C)C(=O)C(O)C3=C(C)C(OC(=O)C(O)C(NC(=O)OC(C)(C)C)c4ccccc4)CC(O)(C(OC(=O)c4ccccc4)C21)C3(C)C (stereo not given) + C=CC(=O)N1CCN(c2nc(OCC3CCCN3C)nc3c(F)c(-c4nc(N)cc(C)c4C(F)(F)F)c(Cl)cc23)C(C)C1 | % | 36.1 |
| CC1(O)CCCC1n1c(=O)c(C(F)F)cc2cnc(NC3CCN(S(C)(=O)=O)CC3)nc21 (stereo not given) + C=CC(=O)N1CCN(c2nc(OCC3CCCN3C)nc3c(F)c(-c4nc(N)cc(C)c4C(F)(F)F)c(Cl)cc23)C(C)C1 | % | 81.3 |
| C[C@@H](NC(=O)c1ncnc(N)c1Cl)c1ncc(C(=O)Nc2cc(C(F)(F)F)c(Cl)cn2)s1 + C=CC(=O)N1CCN(c2nc(OCC3CCCN3C)nc3c(F)c(-c4nc(N)cc(C)c4C(F)(F)F)c(Cl)cc23)C(C)C1 | % | 153 |
| CC(Nc1ccc2c(c1)OCCn1cc(N3C(=O)OCC3C(F)F)nc1-2)C(N)=O (stereo not given) + C=CC(=O)N1CCN(c2nc(OCC3CCCN3C)nc3c(F)c(-c4nc(N)cc(C)c4C(F)(F)F)c(Cl)cc23)C(C)C1 | % | 75.8 |

###

- Tested on: PDC 899932-113-R3-J6 complex spheroid viability
- experiment: Anticancer human tumor 899932-113-R3-J6-PDC cell line growth inhibition [RAS];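 as to viability, T/C: spheroids exposed to agents for seven days before readout; 100% = DMSO vehicle control wells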
- conditions: second compound 0.00316 µM; first compound 3.16 µM; stronger effect = lower value
Below, each of the molecules is paired with its reported viability, T/C value.
quantity kind: viability, T/C (%)

| molecule | display unit | value reported |
| --- | --- | --- |
| NC1c2ccccc2OC12CCN(c1cnc3c(N4CCCc5ncccc54)n[nH]c3n1)CC2 (stereo not drawn) + C=CC(=O)N1CCN(c2nc(OCC3CCCN3C)nc3c(F)c(-c4nc(N)cc(C)c4C(F)(F)F)c(Cl)cc23)C(C)C1 | % | 108 |
| C[C@@H](NC(=O)c1ncnc(N)c1Cl)c1ncc(C(=O)Nc2cc(C(F)(F)F)c(Cl)cn2)s1 + C=CC(=O)N1CCN(c2nc(OCC3CCCN3C)nc3c(F)c(-c4nc(N)cc(C)c4C(F)(F)F)c(Cl)cc23)C(C)C1 | % | 103 |
| CC1(O)CCCC1n1c(=O)c(C(F)F)cc2cnc(NC3CCN(S(C)(=O)=O)CC3)nc21 (stereo not drawn) + C=CC(=O)N1CCN(c2nc(OCC3CCCN3C)nc3c(F)c(-c4nc(N)cc(C)c4C(F)(F)F)c(Cl)cc23)C(C)C1 | % | 57.3 |
| Cc1nc(N2CCC3(CC2)COC(C)C3N)c(CO)nc1Sc1ccnc(N)c1Cl (stereo not drawn) + C=CC(=O)N1CCN(c2nc(OCC3CCCN3C)nc3c(F)c(-c4nc(N)cc(C)c4C(F)(F)F)c(Cl)cc23)C(C)C1 | % | 115 |
| CC(Nc1ccc2c(c1)OCCn1cc(N3C(=O)OCC3C(F)F)nc1-2)C(N)=O (stereo not drawn) + C=CC(=O)N1CCN(c2nc(OCC3CCCN3C)nc3c(F)c(-c4nc(N)cc(C)c4C(F)(F)F)c(Cl)cc23)C(C)C1 | % | 43 |
| CCC(CC)c1cc(NC2CCC(N)C2)n2nccc2n1 (stereo not drawn) + C=CC(=O)N1CCN(c2nc(OCC3CCCN3C)nc3c(F)c(-c4nc(N)cc(C)c4C(F)(F)F)c(Cl)cc23)C(C)C1 | % | 0.74 |
| CC(C)NCC(C(=O)N1CCN(c2ncnc3c2C(C)CC3O)CC1)c1ccc(Cl)cc1 (stereo not drawn) + C=CC(=O)N1CCN(c2nc(OCC3CCCN3C)nc3c(F)c(-c4nc(N)cc(C)c4C(F)(F)F)c(Cl)cc23)C(C)C1 | % | 60.3 |
| CC(=O)OC12COC1CC(O)C1(C)C(=O)C(O)C3=C(C)C(OC(=O)C(O)C(NC(=O)OC(C)(C)C)c4ccccc4)CC(O)(C(OC(=O)c4ccccc4)C21)C3(C)C (stereo not drawn) + C=CC(=O)N1CCN(c2nc(OCC3CCCN3C)nc3c(F)c(-c4nc(N)cc(C)c4C(F)(F)F)c(Cl)cc23)C(C)C1 | % | 69.7 |

###

- System: PDC 899932-113-R3-J6 complex spheroid viability
- experiment: Anticancer human tumor 899932-113-R3-J6-PDC cell line growth inhibition [RAS]
- conditions: curve of first compound; second compound 0.01 µM
Below, each of the compounds is paired with its reported IC50 value.
quantity kind: IC50 (nM)

| compound | study system | display unit | relation qualifier | value reported |
| --- | --- | --- | --- | --- |
| Cc1nc(N2CCC3(CC2)COC(C)C3N)c(CO)nc1Sc1ccnc(N)c1Cl (stereo not given) + C=CC(=O)N1CCN(c2nc(OCC3CCCN3C)nc3c(F)c(-c4nc(N)cc(C)c4C(F)(F)F)c(Cl)cc23)C(C)C1 | PDC 899932-113-R3-J6 complex spheroid viability | nM | > | 10000 |
| CCN1CCN(Cc2ccc(Nc3ncc(F)c(-c4cc(F)c5nc(C)n(C(C)C)c5c4)n3)nc2)CC1 + C=CC(=O)N1CCN(c2nc(OCC3CCCN3C)nc3c(F)c(-c4nc(N)cc(C)c4C(F)(F)F)c(Cl)cc23)C(C)C1 | PDC 899932-113-R3-J6 complex spheroid viability | nM | = | 457 |
| CC(C)n1nc(-c2ccc3oc(N)nc3c2)c2c(N)ncnc21 + C=CC(=O)N1CCN(c2nc(OCC3CCCN3C)nc3c(F)c(-c4nc(N)cc(C)c4C(F)(F)F)c(Cl)cc23)C(C)C1 | PDC 899932-113-R3-J6 complex spheroid viability | nM | > | 100 |
| CC1(O)CCCC1n1c(=O)c(C(F)F)cc2cnc(NC3CCN(S(C)(=O)=O)CC3)nc21 (stereo not given) + C=CC(=O)N1CCN(c2nc(OCC3CCCN3C)nc3c(F)c(-c4nc(N)cc(C)c4C(F)(F)F)c(Cl)cc23)C(C)C1 | PDC 899932-113-R3-J6 complex spheroid viability | nM | = | 4020 |
| O=C(c1ccc(F)c(F)c1Nc1ccc(I)cc1F)N1CC(O)([C@@H]2CCCCN2)C1 + C=CC(=O)N1CCN(c2nc(OCC3CCCN3C)nc3c(F)c(-c4nc(N)cc(C)c4C(F)(F)F)c(Cl)cc23)C(C)C1 | PDC 899932-113-R3-J6 complex spheroid viability | nM | = | 6.26 |
